target: Peroxisome proliferator-activated receptor delta (Homo sapiens)
Sequence (Q03181 whole entry): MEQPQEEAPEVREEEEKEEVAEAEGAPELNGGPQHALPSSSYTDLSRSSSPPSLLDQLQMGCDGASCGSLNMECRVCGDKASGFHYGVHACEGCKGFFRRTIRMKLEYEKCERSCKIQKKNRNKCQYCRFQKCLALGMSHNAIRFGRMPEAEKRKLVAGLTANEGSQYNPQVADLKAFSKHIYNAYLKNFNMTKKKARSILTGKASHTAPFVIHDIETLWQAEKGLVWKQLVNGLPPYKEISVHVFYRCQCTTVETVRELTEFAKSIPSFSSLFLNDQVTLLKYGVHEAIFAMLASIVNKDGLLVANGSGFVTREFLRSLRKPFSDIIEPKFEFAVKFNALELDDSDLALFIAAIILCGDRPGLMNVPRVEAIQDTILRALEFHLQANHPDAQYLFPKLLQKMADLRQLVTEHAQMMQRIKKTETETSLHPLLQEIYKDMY
pIC50: −log10 of the molar value.
Each entry below carries its reported pIC50.

# example entries with known answers
C[C@]1(C(=O)O)CCc2ccc(OCCCOc3ccc(C4CCCCC4)cc3Cl)cc2O1 = < 4.82
C[C@]1(C(=O)O)CCc2ccc(OCCCOc3ccc(C4CCC5(CC4)CC5)cc3Cl)cc2O1 = < 4.30

Now examine the next entry.
Ask: Missing value: pIC50, Peroxisome proliferator-activated receptor delta (Homo sapiens), entry CC[C@]1(C(=O)O)CCc2ccc(OCCCOc3ccc(C4CCCCC4)cc3Cl)cc2O1 . Fill in?
Result: < 4.30

====

test: in vivo; conditions: Sprague-Dawley, rat, iv, 0.5 mg/kg
Description: Hail-life period determined against Sprague-Dawley Rat at 0.5 mg/kg after intravenous administration; (Number of rats = 3)
Each entry below carries its reported half-life.
Report as a plain number; the unit h is understood.

C[C@]1(C(=O)O)CCc2ccc(OCCCOc3ccc(OCC4CC4)cc3Cl)cc2O1 = 2.9
C[C@]1(C(=O)O)CCc2ccc(OCCCOc3ccc(OCC(F)(F)F)cc3Cl)cc2O1 = 2.7

Ask: Which measured half-life value corresponds to CC(C)Cc1ccc(OCCCOc2ccc3c(c2)O[C@@](C)(C(=O)O)CC3)c(Cl)c1 ?
Result: 2.9

Ask: Which measured half-life value corresponds to CC[C@]1(C(=O)O)CCc2ccc(OCCCOc3ccc(C4CCCCC4)cc3Cl)cc2O1 ?
Result: 1.2

Ask: Which measured half-life value corresponds to CC[C@]1(C(=O)O)CCc2ccc(OCCCOc3ccc(C4CCC(C)(C)CC4)cc3Cl)cc2O1 ?
Result: 6.8

Ask: Which measured half-life value corresponds to CC(C)c1ccc(OCCCOc2ccc3c(c2)O[C@@](C)(C(=O)O)CC3)c(Cl)c1 ?
Result: 1.3

Ask: Which measured half-life value corresponds to CC[C@]1(C(=O)O)CCc2ccc(OCCCOc3ccc(C4CCC5(CC4)CC5)cc3Cl)cc2O1 ?
Result: 4.5

Ask: Which measured half-life value corresponds to C[C@]1(C(=O)O)CCc2ccc(OCCCOc3ccc(C4CCCC4)cc3Cl)cc2O1 ?
Result: 1.3

Ask: Which measured half-life value corresponds to CC[C@]1(C(=O)O)CCc2ccc(OCCCOc3ccc(C4CCOCC4)cc3Cl)cc2O1 ?
Result: 0.9
